# system: Shiga toxin 2 (Escherichia coli O157:H7) (UniProt P09385+P09386)
# assay_explanation: E. coli 0.157:H7 Shiga Toxin SOP - stx2 screening assay
# Assay type: functional
# Parameters: scale not given: direction of the effect not stated beside the values
# measurement_parameters: 30 µM
value_kind: Percent Effect (%)
Answers are plain numbers, in %.

compound: CCn1cc2c(n1)C(COC)CN(Cc1ccccn1)C2 (stereo not drawn)
system: Shiga toxin 2 (Escherichia coli O157:H7) (UniProt P09385+P09386)
Percent Effect / %: -16.8
--
compound: CN(C)C(=O)CN1CCC2(CCCN(Cc3cccn3C)C2)C1=O (stereo not drawn)
system: Shiga toxin 2 (Escherichia coli O157:H7) (UniProt P09385+P09386)
Percent Effect / %: -13.9
--
compound: N#CC1(C(=O)N2CCN(c3nccs3)CC2)CCCCC1
system: Shiga toxin 2 (Escherichia coli O157:H7) (UniProt P09385+P09386)
Percent Effect / %: 33.3
--
compound: Cc1cnn(CC2CCCN2C(=O)c2cc3c(F)cccc3[nH]2)c1 (stereo not drawn)
system: Shiga toxin 2 (Escherichia coli O157:H7) (UniProt P09385+P09386)
Percent Effect / %: -37.3
--
compound: Cc1cnn(CC2CCCCN2Cc2nnc(C3CC3)n2C)c1 (stereo not drawn)
system: Shiga toxin 2 (Escherichia coli O157:H7) (UniProt P09385+P09386)
Percent Effect / %: 1.19

Here are 5 compounds. What values of Percent Effect were reported for them?
1. CSC(C)C(=O)N1CCCN(Cc2cscn2)CC1 (stereo not drawn)
2. c1ccc2cc(OCCN3CCn4c(nnc4C4CC4)C3)ccc2c1
3. CC(C)c1ccsc1C(=O)N1CCCN(Cc2cscn2)CC1
4. CCc1ncc(C(=O)N2CCOCC2c2c(C)n[nH]c2C)s1 (stereo not drawn)
5. c1cc2n(n1)CC(CNCc1ccc(OCC3CC3)nc1)CN2 (stereo not drawn)

*A*
1: 25.4; 2: -16.6; 3: 14.7; 4: 7.37; 5: -66.4

Give me Percent Effect for each of these compounds, listed below.
1. Cc1ccc(C(=O)N2CCCC2c2nnc3n2CCCCC3)o1 (stereo not drawn)
2. Cc1nc2cc(O)nn2c(C)c1CCC(=O)N(C)Cc1cscn1

*A*
[-7.29, 4.66]

###

Exercise: state measured Percent Effect for each of the compounds provided.
# system: Shiga toxin 2 (Escherichia coli O157:H7) (UniProt P09385+P09386)
# assay_explanation: E. coli 0.157:H7 Shiga Toxin SOP - stx2 screening assay
# Format: functional
# Set-up: scale not given: direction of the effect not stated beside the values
# measurement_parameters: 30 µM
Numbers only, in %.

Report Percent Effect for every entry below.
1. O=C(NC1CC1)c1ccc2ccc(N3CCN(CC4CC4)CC3)n2c1
2. COC(=O)COc1nc(CC(C)C)c2c(c1C#N)CCCC2
3. CCOC(=O)N1CCN(c2nc(NCCCO)c3ccccc3n2)CC1
4. Cc1nc(C2CCCN2CCCNS(C)(=O)=O)no1 (configuration not stated)
5. Cc1ccc(CCNC(=O)N2CCCC(Cc3nccn3C)C2)cn1 (configuration not stated)
6. CN(Cc1cccc(Cl)c1)S(=O)(=O)N1CCOCC1
7. COc1ccc(CS(=O)(=O)CC(=O)NCc2ccccc2F)cc1F
8. c1cncc(OCc2nnn3c2CN(Cc2ccsc2)CCC3)c1

*A*
1. -80.6
2. -1.99
3. -29.9
4. 23.5
5. -13.3
6. 7.77
7. -1.34
8. -23

Dear reader, for each entry below, please note its Percent Effect.
1. CN(CCOc1cccc(CNC(=O)C2CC2)c1)C1CCOCC1
2. CCc1ccc(C(=O)N2CCN(CCS(C)(=O)=O)CC2)o1
3. O=C(CCNC(=O)c1ccccc1)Nc1ccncc1
4. COc1ccc(CN2CCn3cc(Cn4cccn4)nc3C2)cc1

*A*
[-0.044, 24.9, -111, -37.1]

###

# system: Aspartate--tRNA(Asp/Asn) ligase (Mycobacterium tuberculosis (strain ATCC 25618 / H37Rv)); note: in the data most compounds retested in dose-response had high values
# assay_explanation: Assay for Asp RNA synthetase-1 from Mycobacterium tuberculosis
# Type: functional
# Design: scale not given: direction of the effect not stated beside the values
# measurement_parameters: 30 µM
value_kind: Percent Effect (%)
One number for each entry, in %.

Worked examples, 5 compounds total:
compound: CCn1cc(CN2C[C@@H]3CCCN3C[C@@H]2CCSC)c(C)n1
Percent Effect (%): -0.662

compound: CC(C)CN1Cc2c(C(=O)N(C)C)ncn2-c2ccccc2S1(=O)=O
Percent Effect (%): -2.86

compound: O=C(NCCN1CCOCC1)NCc1ncc(-c2ccccc2)o1
Percent Effect (%): 1.62

compound: Fc1ccc(CN2CCO[C@H]3[C@H](OCC4CC4)CC[C@@H]32)cc1
Percent Effect (%): -1.08

compound: CS(=O)(=O)Cc1ccc(CNC(=O)c2cccnc2O)cc1
Percent Effect (%): -6.68

Okay, here is my list. What is Percent Effect for each of these?
1. COc1c(CNC2CCSc3ccc(F)cc32)c(C)nn1C (stereo unspecified)
2. Cc1cccc(CN2CCC3(CCN(c4ccccn4)C3)C2=O)c1 (stereo unspecified)

*A*
1. 0.879
2. 0.319

###

Please go through the items and note down their Percent Effect.
# system: Shiga toxin 2 (Escherichia coli O157:H7) (UniProt P09385+P09386)
# assay_explanation: E. coli 0.157:H7 Shiga Toxin SOP - stx2 screening assay
# Assay type: functional
# Set-up: scale not given: direction of the effect not stated beside the values
# measurement_parameters: 30 µM
Form field: result (number plus unit)

Examples with their reported Percent Effect follow.
compound: O=C(C1=CCCC1)N1CCC[C@]2(C[C@@H](OCc3ccncc3)CO2)C1
value_kind: Percent Effect
test_result: -14.6%

compound: c1cnc(NCc2noc3c2CN(CCN2CCCC2)CC3)nc1
value_kind: Percent Effect
test_result: -35.5%

compound: Cc1cccc(N2CC[C@@H]3CN(C(=O)c4ccco4)CCO[C@@H]3C2)n1
value_kind: Percent Effect
test_result: 1.6%

compound: Cc1cccc(CN2C[C@@H]3CN(C(=O)[C@H]4CCCO4)C[C@@H]3C2=O)c1
value_kind: Percent Effect
test_result: -9.8%

compound: CN(Cc1cnn(C)c1)C(=O)NCc1nnc2n1CCC2
value_kind: Percent Effect
test_result: 4.62%

Hi team, please reply with Percent Effect for each item in this list.
1. CCn1nc(C)c2nnn(CC(=O)Nc3cccc(Cl)c3)c(=O)c21
2. Cc1nc(C)n(CC2CCCN2CCCOc2ccc(F)cc2)n1 (stereo unspecified)
3. Fc1cnc(N2CCn3cc(CNc4ccccn4)nc3C2)nc1

*A*
1: -43.6%; 2: 0.578%; 3: -67.4%

Look at each compound and report its Percent Effect.
1. COc1cccc(C2CC(=O)Nc3nc(N)sc32)c1OC (stereo unspecified)
2. CCS(=O)(=O)CCN1CCCC1c1noc(C2CC2)n1 (stereo unspecified)
3. CSc1ccc(Cl)c(C(=O)N2CCCC(CNS(C)(=O)=O)C2)c1 (stereo unspecified)

*A*
["-20%", "-0.711%", "-37.8%"]

###

# system: Shiga toxin 2 (Escherichia coli O157:H7) (UniProt P09385+P09386)
# assay_explanation: E. coli 0.157:H7 Shiga Toxin SOP - stx2 screening assay
# Format: functional
# Parameters: scale not given: direction of the effect not stated beside the values
# measurement_parameters: 30 µM
I'd be grateful if you could share measured Percent Effect for these entries.
Numbers only, in %.

Here are 5 compounds together with their reported answers.
compound: O=C(NC1COC2(CCN(Cc3ccccn3)CC2)C1)c1ccccn1 (centres undefined)
system: Shiga toxin 2 (Escherichia coli O157:H7) (UniProt P09385+P09386)
measure_unit: %
Percent Effect: -29.1
//
compound: COCCOCC(=O)Nc1ccc(C)cc1F
system: Shiga toxin 2 (Escherichia coli O157:H7) (UniProt P09385+P09386)
measure_unit: %
Percent Effect: 2.25
//
compound: Cc1cccc2cc(CNCCCN3CCOCC3)c(=O)[nH]c12
system: Shiga toxin 2 (Escherichia coli O157:H7) (UniProt P09385+P09386)
measure_unit: %
Percent Effect: -27.9
//
compound: CC(C)c1n[nH]c(C2CN(C(=O)c3csnn3)CCO2)n1 (centres undefined)
system: Shiga toxin 2 (Escherichia coli O157:H7) (UniProt P09385+P09386)
measure_unit: %
Percent Effect: -13.5
//
compound: CN(C)S(=O)(=O)N1CCC(Oc2cnccn2)CC1
system: Shiga toxin 2 (Escherichia coli O157:H7) (UniProt P09385+P09386)
measure_unit: %
Percent Effect: -9.23

Hey, can you go through the list below and give me Percent Effect for every item?
1. Cc1cc(N(C)Cc2noc(C)n2)n2nc(C)c(C)c2n1
2. O=C1OCCN1CCOc1nc(-c2ccccc2Cl)no1
3. CSc1ccccc1CN1CCCn2nc(CNC(=O)N(C)C)cc2C1
4. CCc1ccc(O)c(C(=O)NC2CCN(Cc3ccncc3)CC2)c1
5. CCC1c2ccsc2CCN1C(=O)NCc1cc[nH]n1 (centres undefined)
6. CC(C)(O)C1CCN(C(=O)Nc2nc(-c3ccccc3)ns2)CC1
7. Cc1cc(N2CCC(c3nnc(CN(C)C)n3C3CC3)CC2)ccn1
8. CC(=O)N1CC[C@H]2OCC[C@@]2(C(=O)NCc2ccco2)C1

*A*
1. -8.78
2. -14.8
3. -34.2
4. -67.7
5. -35
6. -6.7
7. -33.5
8. -17.2

Batch request: Percent Effect per item, same order as input.
1. Cc1cnn(CC2CN(Cc3cccc(C(=O)N(C)C)c3)CCO2)c1 (centres undefined)
2. COc1ncccc1CNC(=O)c1cccnc1O
3. CCc1noc(C(C)N2CCC(NC(=O)c3ccc(C)s3)CC2)n1 (centres undefined)
4. CC(OCC1CC1)C(=O)N1CCCN(Cc2nccn2C)CC1 (centres undefined)

*A*
1: -24.4; 2: -17.1; 3: -30.1; 4: -20.4

All values here come from ChEMBL document CHEMBL3988442.
